src = patent US20170001990A1

# test target: Human recombinant carboxy-terminal his-tagged LDHA (amino acids 2-332) (Homo sapiens, UniProt P00338)
# measurement description: LDHA enzyme inhibition assay (NADH fluorescence)
# measurement setup: LDHA IC50 (μM), 1 nM LDHA, NADH and pyruvate, stereochemistry of tested sample given
reported property: IC50 (µM)
Give the value, in units of µM, as a plain number.

// query Fill in reported IC50 for this entry: CC(C)CCOc1cccc(C2(c3ccsc3)CC(=O)C(Sc3ccccc3Cl)C(=O)N2)n1 (single isomer, unassigned) [Example 119]
// result 0.293

// query Fill in reported IC50 for this entry: Cc1cc(Nc2cccc([C@@]3(c4ccsc4)CC(=O)C(Sc4ccccc4Cl)C(=O)N3)n2)cnc1F (stereo partly shown)
// result 0.002

// query Fill in reported IC50 for this entry: CC1CN(c2ccc(C3(c4ccsc4)CC(=O)C(Sc4ccccc4Cl)C(=O)N3)cc2)CCO1 (stereo not shown)
// result 0.009

// query Fill in reported IC50 for this entry: O=C1CC(c2ccsc2)(c2ccc3ccccc3c2)NC(=O)C1Sc1ccccc1Cl (stereo not shown)
// result 0.01

// query Fill in reported IC50 for this entry: CN(c1ccc(Cl)cc1)c1cccc(C2(c3ccsc3)CC(=O)C(Sc3ccccc3Cl)C(=O)N2)n1 (stereo not shown)
// result 0.272

// query Fill in reported IC50 for this entry: O=C1CC(c2ccsc2)(c2cccc(Oc3cccc(F)c3)n2)NC(=O)C1Sc1ccccc1Cl (single isomer, unassigned) [Example 79]
// result 0.199

// query Fill in reported IC50 for this entry: O=C1CC(c2ccsc2)(c2cccc(NCc3ccc(F)cc3)n2)NC(=O)C1Sc1ccccc1Cl (single isomer, unassigned) [Example 291]
// result 0.093

====

# test target: Human recombinant carboxy-terminal his-tagged LDHA (amino acids 2-332) (Homo sapiens)
# measurement description: LDHA enzyme inhibition assay (NADH fluorescence)
# measurement setup: LDHA IC50 (μM), 1 nM LDHA, NADH and pyruvate, stereochemistry of tested sample given
Consider the cut-off 0.06 µM. If the recorded IC50 is strictly smaller, the label is Fulfilled; if not, the label is Not fulfilled.

// query Does O=C1CC(c2ccsc2)(c2cccc(Oc3ccc(F)c4cccnc34)n2)NC(=O)C1Sc1ccccc1Cl (stereo not drawn) have IC50 strictly under 0.06 µM?
// result Not fulfilled

// query Does CC(Oc1cccc(C2(c3ccsc3)CC(=O)C(Sc3ccccc3Cl)C(=O)N2)n1)C1CC1 (single isomer, unassigned) [Example 159] have IC50 strictly under 0.06 µM?
// result Fulfilled

// query Does O=C1CC(c2ccsc2)(c2cccc(Oc3ccccc3Br)n2)NC(=O)C1Sc1ccccc1Cl (single isomer, unassigned) [Example 172] have IC50 strictly under 0.06 µM?
// result Fulfilled

// query Does O=C1CC(c2ccsc2)(c2cccc(Oc3ccc(Cl)cc3)n2)NC(=O)C1Sc1ccccc1Cl (stereo not drawn) [Example 175] have IC50 strictly under 0.06 µM?
// result Fulfilled

// query Does CC(Oc1cccc(C2(c3ccsc3)CC(=O)C(Sc3ccccc3Cl)C(=O)N2)n1)c1ccc(Cl)cc1 (stereo not drawn) have IC50 strictly under 0.06 µM?
// result Not fulfilled

// query Does O=C1CC(c2ccsc2)(c2cccc(N3CC(C4CCOCC4)C3)n2)NC(=O)C1Sc1ccccc1Cl (stereo not drawn) [Example 162] have IC50 strictly under 0.06 µM?
// result Fulfilled

// query Does O=C1CC(c2ccsc2)(c2cccc(Nc3cccc(CO)c3)n2)NC(=O)C1Sc1ccccc1Cl (stereo not drawn) have IC50 strictly under 0.06 µM?
// result Fulfilled

// query Does O=C1CC(c2ccsc2)(c2cccc(OC3CCC(F)(F)CC3)n2)NC(=O)C1Sc1ccccc1Cl (stereo not drawn) have IC50 strictly under 0.06 µM?
// result Not fulfilled

// query Does CC(C)Oc1cccc(C2(c3ccsc3)CC(=O)C(Sc3ccccc3Cl)C(=O)N2)n1 (stereo not drawn) have IC50 strictly under 0.06 µM?
// result Not fulfilled

// query Does Cc1csc(Nc2cccc(C3(c4ccsc4)CC(=O)C(Sc4ccccc4Cl)C(=O)N3)n2)n1 (stereo not drawn) have IC50 strictly under 0.06 µM?
// result Fulfilled

// query Does O=C1CC(c2ccsc2)(c2cccc(Oc3ccccc3Br)n2)NC(=O)C1Sc1ccccc1Cl (single isomer, unassigned) [Example 116] have IC50 strictly under 0.06 µM?
// result Not fulfilled

// query Does O=C1CC(c2ccsc2)(c2cccc(Cc3ccc(F)c(F)c3)n2)NC(=O)C1Sc1ccccc1Cl (single isomer, unassigned) [Example 282] have IC50 strictly under 0.06 µM?
// result Fulfilled

// query Does O=C1CC(c2ccsc2)(c2cccc(OCC(F)(F)F)n2)NC(=O)C1Sc1ccccc1Cl (single isomer, unassigned) [Example 86] have IC50 strictly under 0.06 µM?
// result Fulfilled

// query Does O=C1CC(c2ccsc2)(c2cccc(OCC(F)(F)F)n2)NC(=O)C1Sc1ccccc1Cl (single isomer, unassigned) [Example 87] have IC50 strictly under 0.06 µM?
// result Fulfilled

// query Does COc1cc(Cc2cccc(C3(c4ccsc4)CC(=O)C(Sc4ccccc4Cl)C(=O)N3)n2)ccc1F (stereo not drawn) [Example 259] have IC50 strictly under 0.06 µM?
// result Fulfilled

// query Does COCc1ccccc1Oc1cccc(C2(c3ccsc3)CC(=O)C(Sc3ccccc3Cl)C(=O)N2)n1 (stereo not drawn) [Example 94] have IC50 strictly under 0.06 µM?
// result Fulfilled

// query Does CC(Oc1cccc(C2(c3ccsc3)CC(=O)C(Sc3ccccc3Cl)C(=O)N2)n1)C1CC1 (single isomer, unassigned) [Example 207] have IC50 strictly under 0.06 µM?
// result Fulfilled

// query Does CC1(C)OCC(CCOc2cccc(C3(c4ccsc4)CC(=O)C(Sc4ccccc4Cl)C(=O)N3)n2)O1 (stereo not drawn) [Example 191] have IC50 strictly under 0.06 µM?
// result Not fulfilled

// query Does O=C1CC(c2ccsc2)(c2cccc(OCC3CC3)n2)NC(=O)C1Sc1ccccc1Cl (single isomer, unassigned) [Example 84] have IC50 strictly under 0.06 µM?
// result Fulfilled

// query Does O=C1CC(c2ccsc2)(c2cccc(Oc3cccc4c3NCCC4)n2)NC(=O)C1Sc1ccccc1Cl (stereo not drawn) [Example 109] have IC50 strictly under 0.06 µM?
// result Fulfilled

// query Does O=C1CC(c2ccsc2)(c2cccc(Oc3cccc(C(F)F)c3)n2)NC(=O)C1Sc1ccccc1Cl (single isomer, unassigned) [Example 136] have IC50 strictly under 0.06 µM?
// result Not fulfilled

// query Does COc1cc(F)cc(Cc2cccc(C3(c4ccsc4)CC(=O)C(Sc4ccccc4Cl)C(=O)N3)n2)c1 (single isomer, unassigned) [Example 171] have IC50 strictly under 0.06 µM?
// result Not fulfilled

// query Does O=C1CC(c2ccsc2)(c2cccc(Oc3cc(F)cc(CO)c3)n2)NC(=O)C1Sc1ccccc1Cl (single isomer, unassigned) [Example 176] have IC50 strictly under 0.06 µM?
// result Fulfilled

// query Does COc1cc(F)cc(Cc2cccc(C3(c4ccsc4)CC(=O)C(Sc4ccccc4Cl)C(=O)N3)n2)c1 (stereo not drawn) [Example 147] have IC50 strictly under 0.06 µM?
// result Fulfilled

// query Does O=C1CC(c2ccsc2)(c2cccc(OCCCC(F)(F)F)n2)NC(=O)C1Sc1ccccc1Cl (single isomer, unassigned) [Example 121] have IC50 strictly under 0.06 µM?
// result Fulfilled

// query Does O=C1CC(c2ccsc2)(c2cccc(Cc3cc(F)cc(F)c3)n2)NC(=O)C1Sc1ccccc1Cl (single isomer, unassigned) [Example 146] have IC50 strictly under 0.06 µM?
// result Not fulfilled

// query Does O=C1CC(c2ccsc2)(c2cccc(Cc3ccc(F)cc3)n2)NC(=O)C1Sc1ccccc1Cl (stereo not drawn) have IC50 strictly under 0.06 µM?
// result Fulfilled

====

Assign IC50 to each entry below.
# test target: Human recombinant carboxy-terminal his-tagged LDHA (amino acids 2-332) (Homo sapiens, UniProt P00338)
# measurement description: LDHA enzyme inhibition assay (NADH fluorescence)
# measurement setup: LDHA IC50 (μM), 1 nM LDHA, NADH and pyruvate, stereochemistry of tested sample given
Give the value, in units of µM, as a plain number.

// query Fill in reported IC50 for this entry: O=C1CC(c2ccsc2)(c2cccc(Oc3ccc(Cl)cc3)n2)NC(=O)C1Sc1ccccc1Cl (centres unmarked) [Example 167]
// result 0.006

// query Fill in reported IC50 for this entry: CC1(C)OCC(CCOc2cccc(C3(c4ccsc4)CC(=O)C(Sc4ccccc4Cl)C(=O)N3)n2)O1 (centres unmarked) [Example 190]
// result 0.092

// query Fill in reported IC50 for this entry: O=C1CC(c2ccsc2)(c2ccc(N3CCOCC3)c(Br)n2)NC(=O)C1Sc1ccccc1Cl (centres unmarked) [Example 25]
// result 0.023

// query Fill in reported IC50 for this entry: COc1cccc(N(C)c2cccc(C3(c4ccsc4)CC(=O)C(Sc4ccccc4Cl)C(=O)N3)n2)c1 (centres unmarked) [Example 274]
// result 0.157

// query Fill in reported IC50 for this entry: O=C1CC(c2ccsc2)(c2cccc(Cc3ccccc3)n2)NC(=O)C1Sc1ccccc1Cl (single isomer, unassigned) [Example 204]
// result 0.007

// query Fill in reported IC50 for this entry: O=C1CC(c2ccsc2)(c2cccc(OCC3CCC(CO)CC3)n2)NC(=O)C1Sc1ccccc1Cl (centres unmarked) [Example 253]
// result 0.081

// query Fill in reported IC50 for this entry: CN(C)c1cccc(C2(c3ccsc3)CC(=O)C(Sc3ccccc3Cl)C(=O)N2)n1 (centres unmarked) [Example 85]
// result 0.018

// query Fill in reported IC50 for this entry: O=C1CC(c2ccsc2)(c2cccc(Cc3ccccc3)n2)NC(=O)C1Sc1ccccc1Cl (single isomer, unassigned) [Example 118]
// result 0.622

// query Fill in reported IC50 for this entry: O=C1CC(c2ccc(N3CCCCC3)cc2)(c2ccsc2)NC(=O)C1Sc1cc(O)ccc1Cl (centres unmarked) [Example 43]
// result 0.017

// query Fill in reported IC50 for this entry: O=C1CC(c2ccsc2)(c2cccc(Oc3cccnc3)n2)NC(=O)C1Sc1ccccc1Cl (centres unmarked) [Example 71]
// result 0.056

// query Fill in reported IC50 for this entry: O=C1CC(c2ccsc2)(c2cccc(-c3ccnc(N4CCOCC4)c3)n2)NC(=O)C1Sc1ccccc1Cl (centres unmarked) [Example 261]
// result 0.039

// query Fill in reported IC50 for this entry: O=C1CC(c2ccsc2)(c2cccc(Oc3ccc(F)c(C(F)(F)F)c3)n2)NC(=O)C1Sc1ccccc1Cl (centres unmarked) [Example 123]
// result 0.006

// query Fill in reported IC50 for this entry: O=C1CC(c2ccsc2)(c2cccc(OCC(F)(F)F)n2)NC(=O)C1Sc1ccccc1Cl (single isomer, unassigned) [Example 82]
// result 0.049

// query Fill in reported IC50 for this entry: COCCCOc1cccc(C2(c3ccsc3)CC(=O)C(Sc3ccccc3Cl)C(=O)N2)n1 (single isomer, unassigned) [Example 237]
// result 0.094

// query Fill in reported IC50 for this entry: CCC(C)COc1cccc(C2(c3ccsc3)CC(=O)C(Sc3ccccc3Cl)C(=O)N2)n1 (centres unmarked) [Example 210]
// result 0.008

// query Fill in reported IC50 for this entry: O=C1CC(c2ccsc2)(c2cccc(Oc3cccc4cccnc34)n2)NC(=O)C1Sc1ccccc1Cl (centres unmarked) [Example 88]
// result 0.017

// query Fill in reported IC50 for this entry: CCOCC(C)Oc1cccc(C2(c3ccsc3)CC(=O)C(Sc3ccccc3Cl)C(=O)N2)n1 (centres unmarked) [Example 247]
// result 0.01

// query Fill in reported IC50 for this entry: O=C1C[C@@](c2ccsc2)(c2cccc(OCCC3CC3)n2)NC(=O)C1Sc1ccccc1Cl (some centres unmarked) [Example 95]
// result 0.29

// query Fill in reported IC50 for this entry: O=C1CC(c2ccsc2)(c2cccc(CCc3ccc(F)cc3)n2)NC(=O)C1Sc1ccccc1Cl (single isomer, unassigned) [Example 294]
// result 0.036

// query Fill in reported IC50 for this entry: CCC(C)COc1cccc(C2(c3ccsc3)CC(=O)C(Sc3ccccc3Cl)C(=O)N2)n1 (centres unmarked) [Example 188]
// result 0.015

// query Fill in reported IC50 for this entry: CC/C=C/COc1cccc(C2(c3ccsc3)CC(=O)C(Sc3ccccc3Cl)C(=O)N2)n1 (centres unmarked) [Example 250]
// result 0.036

// query Fill in reported IC50 for this entry: O=C1CC(c2ccsc2)(c2cccc(OCC3CCCCC3)n2)NC(=O)C1Sc1ccccc1Cl (centres unmarked) [Example 308]
// result 0.825

// query Fill in reported IC50 for this entry: O=C1CC(c2ccsc2)(c2cccc(Oc3ccc(F)c(F)c3)n2)NC(=O)C1Sc1ccccc1Cl (single isomer, unassigned) [Example 78]
// result 0.023

// query Fill in reported IC50 for this entry: COC(C)(C)CCOc1cccc(C2(c3ccsc3)CC(=O)C(Sc3ccccc3Cl)C(=O)N2)n1 (centres unmarked) [Example 249]
// result 0.099

// query Fill in reported IC50 for this entry: Cn1ccc(Nc2cccc(C3(c4ccsc4)CC(=O)C(Sc4ccccc4Cl)C(=O)N3)n2)n1 (centres unmarked) [Example 270]
// result 0.099

// query Fill in reported IC50 for this entry: COc1cc(Cc2cccc(C3(c4ccsc4)CC(=O)C(Sc4ccccc4Cl)C(=O)N3)n2)ccc1F (single isomer, unassigned) [Example 284]
// result 0.041

// query Fill in reported IC50 for this entry: O=C1CC(c2ccsc2)(c2cccc(Oc3ccccc3F)n2)NC(=O)C1Sc1ccccc1Cl (centres unmarked) [Example 52]
// result 0.045

// query Fill in reported IC50 for this entry: O=C1CC(c2ccc(OCCCO)cc2)(c2ccsc2)NC(=O)C1Sc1ccccc1Cl (centres unmarked) [Example 28]
// result 0.031

// query Fill in reported IC50 for this entry: O=C1CC(c2ccsc2)(c2cccc(Oc3cccc(C(F)F)c3)n2)NC(=O)C1Sc1ccccc1Cl (single isomer, unassigned) [Example 115]
// result 0.031
